system: HIV-1 (IIIB strain); test: MT-4 antiviral cytoprotection assay, five-day multi-cycle, wild type HIV-1; type: cell-based; conditions: CC50/EC50 ratio, wild type, MT-4
OBSERVABLE: SI (selectivity index)

COMPOUND: COc1cc(F)c(Oc2cc(Cl)nc(Nc3ccc(C#N)cc3)n2)c(F)c1
EXPERIMENTAL_SYSTEM: HIV-1 (IIIB strain)
SI (selectivity index): 847

COMPOUND: Cc1cc(C#N)cc(C)c1Oc1nc(Nc2ccc(C#N)cc2)nc(N)c1Br [ETR, etravirine, reference compound]
EXPERIMENTAL_SYSTEM: HIV-1 (IIIB strain)
SI (selectivity index): 2940

COMPOUND: N#Cc1ccc(Nc2nc(N)cc(Nc3c(F)cc(F)cc3F)n2)cc1
EXPERIMENTAL_SYSTEM: HIV-1 (IIIB strain)
SI (selectivity index): 1289

COMPOUND: COc1cc(F)c(C(=O)c2nc(N)cc(Nc3ccc(C#N)cc3)n2)c(F)c1
EXPERIMENTAL_SYSTEM: HIV-1 (IIIB strain)
SI (selectivity index): 7.14

COMPOUND: COc1cc(F)c(Oc2cc(N)nc(Nc3ccc(C#N)cc3)n2)c(F)c1
EXPERIMENTAL_SYSTEM: HIV-1 (IIIB strain)
SI (selectivity index): 10,850

`COc1cc(F)c(Nc2cc(OC)nc(Nc3ccc(C#N)cc3)n2)c(F)c1` has a reported SI (selectivity index) of 5571

`COc1cc(F)c(Nc2cc(Cl)nc(Nc3ccc(C#N)cc3)n2)c(F)c1` has a reported SI (selectivity index) of 2667

`N#Cc1ccc(Nc2nc(Cl)cc(Oc3c(F)cc(F)cc3F)n2)cc1` has a reported SI (selectivity index) of 264

* * *

test system: HIV-1 (IIIB strain); experiment: MT-4 antiviral cytoprotection assay, five-day multi-cycle, wild type HIV-1; format: cell-based; details: Human immunodeficiency virus 1, IIIB, MT4, read-out: EC50 w.t.
OBSERVABLE: pEC50
Reminder that pEC50 is minus the log10 of a molar concentration.

Sample records with pEC50:
SMILES: N#Cc1ccc(Nc2nc(N)cc(C(=O)c3c(F)cc(F)cc3F)n2)cc1
pEC50: 7.59
//
SMILES: N#Cc1ccc(Nc2nc(Cl)cc(Nc3c(F)cc(F)cc3F)n2)cc1
pEC50: 7.57
//
SMILES: COc1cc(F)c(Nc2cc(Cl)nc(Nc3ccc(C#N)cc3)n2)c(F)c1
pEC50: 8.22
//
SMILES: COc1cc(F)c(Nc2cc(N)nc(Nc3ccc(C#N)cc3)n2)c(F)c1
pEC50: 8.52
//
SMILES: COc1cc(C(=O)c2c(F)cc(F)cc2F)nc(Nc2ccc(C#N)cc2)n1
pEC50: 6.33
//
SMILES: N#Cc1ccc(Nc2nc(Cl)cc(Oc3c(F)cc(F)cc3F)n2)cc1
pEC50: 7.28

`COc1cc(Nc2c(F)cc(F)cc2F)nc(Nc2ccc(C#N)cc2)n1` has a reported pEC50 of 7.66

`Cc1cc(C(=O)c2c(F)cc(F)cc2F)nc(Nc2ccc(C#N)cc2)n1` has a reported pEC50 of 6.80

`N#Cc1ccc(Nc2cc(N)nc(C(=O)c3c(F)cc(F)cc3F)n2)cc1` has a reported pEC50 of 5.76
